Examples of molecules with documented composite z-score follow.
procedure details: COS7 lysate on small-molecule microarray, probe aHis, 635 nm (AID 1123);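 note: z-score combines 667nm fluorescence intensity with signal-to-noise per printed compound spot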
measurement conditions: COS7 cell lysate, fluorescence, higher = more signal

{"smiles str": "Cc1ccc(S[C@]2(C(=O)NCC(F)(F)F)CC(=O)N(C3CCCCC3)[C@@H]2c2ccc(CO)cc2I)cc1", "composite z-score": 2.01}
{"smiles str": "CCOC(=O)C1=CC[C@@H](c2ccccc2C(F)(F)F)N(S(=O)(=O)c2ccc(C)cc2)[C@H]1c1ccc(C#N)cc1", "composite z-score": 0.791}
{"smiles str": "CCCCC(=C=CC[C@@H](O)c1ccccc1OCCO)C[C@@H](O)COCc1ccccc1", "composite z-score": 1.95}

---

procedure details: modulators of HCV replicon luciferase signal, primary screen, HCV replication inhibitor project, Huh7 cells, luciferase reporter (AID 1109);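 note: huh7 hepatoma cells harbouring a luciferase neomycin HCV replicon reporter; luciferase luminescence as measure of HCV replicon replication; test concentration not given here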
measurement conditions: 48 h, higher = more signal
Examples of compounds with documented z-score follow.

{"compound": "COCCCNC(=O)[C@@]1(Sc2ccc(C)cc2)CC(=O)N(C2CCCCC2)[C@@H]1c1ccc(CO)cc1", "z-score": -1.19}
{"compound": "CC(CO)N1C(=O)[C@@H]2[C@H]3C(=O)OCC=C[C@H]3OC23C=CCN(Cc2ccccc2)C(=O)[C@@H]13 (stereo partly drawn)", "z-score": -0.254}
{"compound": "COC(=O)[C@@]1(Cc2ccc(OC)cc2)[C@@H]2C(=CC(=O)[C@H]2CC(=O)C(=O)N(C)C)CN1C(=O)c1ccccc1", "z-score": -2.8}
{"compound": "C=CC[C@]1(C(=O)O)COC(c2ccc(OCCCO)cc2)=N1", "z-score": 0.183}
{"compound": "Cc1ccc(S[C@]2(C(=O)NCCCN(C)C)CC(=O)N(C3CCCCC3)[C@@H]2c2ccc(CO)cc2)cc1", "z-score": -2.51}
{"compound": "COc1ccc([Si](C)(C)[C@@H]2[C@@H](CC(=O)N3Cc4ccccc4C[C@H]3CO)O[C@]3(C(=O)N(Cc4cccc(N5C(=O)c6cccc7cccc5c67)c4)c4ccccc43)[C@H]2C)cc1", "z-score": -3.68}
{"compound": "C=CC[C@]1(C(=O)NCCN2CCOCC2)N=C(c2ccc(OCCCO)cc2)O[C@H]1c1ccccc1CN=[N+]=[N-]", "z-score": -1.59}
{"compound": "COc1ccc(CCNC(=O)[C@@]2(Sc3ccc(C)cc3)CC(=O)N(C3Cc4ccccc4C3)[C@@H]2c2ccc(CO)cc2)cc1", "z-score": -3.04}
{"compound": "COc1cc2c(cc1OC)CN(C(=O)[C@@H]1[C@H]3C(=O)O[C@H](c4ccccc4)[C@H](c4ccccc4)N3[C@H](c3ccc(OCCO)cc3)[C@@]13C(=O)Nc1ccccc13)CC2", "z-score": -1.68}
{"compound": "CC(C)N1CC=CC23O[C@@H]4C=CCOC(=O)[C@@H]4[C@H]2C(=O)N(CCCO)[C@@H]3C1=O (stereo partly drawn)", "z-score": -0.223}
{"compound": "CO[C@]12C=C(Br)[C@@H](C[C@@H]1c1cccc(C)c1)[C@@]1(CO1)C2=O", "z-score": -3.39}
{"compound": "NCCCCCNC(=O)[C@@H]1C[C@@H]2C(=O)NCC(=O)N2[C@@H]1c1cccc(OCCO)c1", "z-score": -0.878}
{"compound": "C=CCNC(=O)[C@H]1[C@@H]2C(=O)O[C@@H](c3ccccc3)[C@@H](c3ccccc3)N2[C@@H](c2ccc(O)cc2)[C@]12C(=O)N(C(=O)OCCOC)c1ccccc12", "z-score": -0.585}
{"compound": "C=CC[C@@]1(C(=O)N2CCOCC2)N=C(c2ccc(OCCCO)cc2)O[C@@H]1c1ccccc1CN=[N+]=[N-]", "z-score": -2.04}
{"compound": "[N-]=[N+]=NCc1ccccc1[C@H]1OC(c2ccc(OCCCO)cc2)=N[C@@]1(CCS(=O)(=O)c1ccccc1)C(=O)NCC(O)CO (stereo partly drawn)", "z-score": -0.157}
{"compound": "CN1C(=O)C2C=CC(C(O)c3ccccn3)N(N(c3ccccc3)c3ccccc3)C2C1=O (stereo not drawn)", "z-score": -0.276}
{"compound": "O=C1OCCC/C=C\\[C@H]2OC34C=CCN(CCN5CCOCC5)C(=O)[C@H]3N(CCCCCCO)C(=O)[C@@H]4C12 (stereo partly drawn)", "z-score": 0.857}
{"compound": "CC(C)(C)N1CC=CC23O[C@@H]4C=CCCOC(=O)C4[C@H]2C(=O)N(CCO)[C@@H]3C1=O (stereo partly drawn)", "z-score": 0.361}
